These data points were gathered from paper PMC9653409.

# TESTED_SYSTEM: RIPK3 (Homo sapiens)
# Sequence (Q9Y572 whole entry): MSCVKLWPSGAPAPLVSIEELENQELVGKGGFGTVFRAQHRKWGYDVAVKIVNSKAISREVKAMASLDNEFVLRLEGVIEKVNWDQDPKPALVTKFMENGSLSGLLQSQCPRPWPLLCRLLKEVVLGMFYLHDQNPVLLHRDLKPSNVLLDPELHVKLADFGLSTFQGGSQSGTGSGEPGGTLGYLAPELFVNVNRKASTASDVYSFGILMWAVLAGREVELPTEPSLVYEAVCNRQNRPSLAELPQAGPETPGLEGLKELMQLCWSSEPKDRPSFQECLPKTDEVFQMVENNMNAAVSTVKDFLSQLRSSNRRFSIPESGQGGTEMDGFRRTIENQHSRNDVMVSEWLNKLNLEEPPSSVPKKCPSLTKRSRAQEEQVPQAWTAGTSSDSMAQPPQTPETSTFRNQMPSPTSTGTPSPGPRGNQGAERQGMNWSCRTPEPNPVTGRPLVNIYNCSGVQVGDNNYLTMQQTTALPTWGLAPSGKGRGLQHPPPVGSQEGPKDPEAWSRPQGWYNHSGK
QUANTITY_MEASURED: IC50

CC(C)C(=O)Nc1nc2cc(-c3ccc4c(c3)c(C(=O)NC(C)c3ccccc3)cn4C)ccn2n1 (stereo not shown) [RI-962]	> 10 µM

====

# TEST: Pharmacokinetics in Sprague-Dawley rats
# Type: in vivo
# RUN_PARAMETERS: male, Sprague-Dawley, rat, plasma, ip, 20 mg/kg; read-out: MRT0-∞
QUANTITY_MEASURED: MRT inf (h)

CC(C)C(=O)Nc1nc2cc(-c3ccc4c(c3)c(C(=O)NC(C)c3ccccc3)cn4C)ccn2n1 (stereo not shown)	2.8

====

# TEST: Pharmacokinetics in Sprague-Dawley rats
# Type: in vivo
# RUN_PARAMETERS: male, Sprague-Dawley, rat, plasma, intravenous, 5 mg/kg, Supplementary Figure 7 panel a; 2 h; animals 1-3; read-out: Plasma Concentraion
QUANTITY_MEASURED: concentration at 2 h (ng/mL)

CC(C)C(=O)Nc1nc2cc(-c3ccc4c(c3)c(C(=O)NC(C)c3ccccc3)cn4C)ccn2n1 (stereo not shown) [RI-962]	59.6

====

# TEST: Pharmacokinetics in Sprague-Dawley rats
# Type: in vivo
# RUN_PARAMETERS: male, Sprague-Dawley, rat, plasma, oral, 20 mg/kg, Supplementary Figure 7 panel b; 0.5 h; animals 1-3; read-out: Plasma Concentraion
QUANTITY_MEASURED: concentration at 0.5 h

CC(C)C(=O)Nc1nc2cc(-c3ccc4c(c3)c(C(=O)NC(C)c3ccccc3)cn4C)ccn2n1 (stereo not shown)	418 ng/mL

====

# TEST: Pharmacokinetics in Sprague-Dawley rats
# Format: in vivo
# RUN_PARAMETERS: male, Sprague-Dawley, rat, plasma, intravenous, 5 mg/kg, Supplementary Figure 7 panel a; 0.5 h; animals 1-3; read-out: Plasma Concentraion
QUANTITY_MEASURED: concentration at 0.5 h (ng/mL)

CC(C)C(=O)Nc1nc2cc(-c3ccc4c(c3)c(C(=O)NC(C)c3ccccc3)cn4C)ccn2n1 (stereo not shown) [RI-962]	1610

====

# TEST: Pharmacokinetics in Sprague-Dawley rats
# Assay type: in vivo
# RUN_PARAMETERS: male, Sprague-Dawley, rat, plasma, oral, 20 mg/kg, Supplementary Figure 7 panel b; 0.083 h; animals 1-3; read-out: Plasma Concentraion
QUANTITY_MEASURED: concentration at 0.083 h

CC(C)C(=O)Nc1nc2cc(-c3ccc4c(c3)c(C(=O)NC(C)c3ccccc3)cn4C)ccn2n1 (stereo not shown) [RI-962]	113 ng/mL

====

# TEST: Pharmacokinetics in Sprague-Dawley rats
# Type: in vivo
# RUN_PARAMETERS: male, Sprague-Dawley, rat, plasma, intravenous, 5 mg/kg, Supplementary Figure 7 panel a; 0.083 h; animals 1-3; read-out: Plasma Concentraion
QUANTITY_MEASURED: concentration at 0.083 h (ng/mL)

CC(C)C(=O)Nc1nc2cc(-c3ccc4c(c3)c(C(=O)NC(C)c3ccccc3)cn4C)ccn2n1 (stereo not shown)	11800

====

# TEST: Pharmacokinetics in Sprague-Dawley rats
# Format: in vivo
# RUN_PARAMETERS: male, Sprague-Dawley, rat, plasma, iv, 5 mg/kg
QUANTITY_MEASURED: AUC(0-inf) (ng·h/mL)

CC(C)C(=O)Nc1nc2cc(-c3ccc4c(c3)c(C(=O)NC(C)c3ccccc3)cn4C)ccn2n1 (stereo not shown)	4540

====

# TEST: Pharmacokinetics in Sprague-Dawley rats
# Format: in vivo
# RUN_PARAMETERS: male, Sprague-Dawley, rat, plasma, iv, 5 mg/kg
QUANTITY_MEASURED: clearance

CC(C)C(=O)Nc1nc2cc(-c3ccc4c(c3)c(C(=O)NC(C)c3ccccc3)cn4C)ccn2n1 (stereo not shown)	18.5 mL/min/kg

====

# TEST: Pharmacokinetics in Sprague-Dawley rats
# Type: in vivo
# RUN_PARAMETERS: male, Sprague-Dawley, rat, plasma, intravenous, 5 mg/kg, Supplementary Figure 7 panel a; 1 h; animals 1-3; read-out: Plasma Concentraion
QUANTITY_MEASURED: concentration at 1 h (ng/mL)

CC(C)C(=O)Nc1nc2cc(-c3ccc4c(c3)c(C(=O)NC(C)c3ccccc3)cn4C)ccn2n1 (stereo not shown)	291

====

# TESTED_SYSTEM: RIPK1 (Homo sapiens, UniProt Q13546)
# Sequence (Q13546 1-671): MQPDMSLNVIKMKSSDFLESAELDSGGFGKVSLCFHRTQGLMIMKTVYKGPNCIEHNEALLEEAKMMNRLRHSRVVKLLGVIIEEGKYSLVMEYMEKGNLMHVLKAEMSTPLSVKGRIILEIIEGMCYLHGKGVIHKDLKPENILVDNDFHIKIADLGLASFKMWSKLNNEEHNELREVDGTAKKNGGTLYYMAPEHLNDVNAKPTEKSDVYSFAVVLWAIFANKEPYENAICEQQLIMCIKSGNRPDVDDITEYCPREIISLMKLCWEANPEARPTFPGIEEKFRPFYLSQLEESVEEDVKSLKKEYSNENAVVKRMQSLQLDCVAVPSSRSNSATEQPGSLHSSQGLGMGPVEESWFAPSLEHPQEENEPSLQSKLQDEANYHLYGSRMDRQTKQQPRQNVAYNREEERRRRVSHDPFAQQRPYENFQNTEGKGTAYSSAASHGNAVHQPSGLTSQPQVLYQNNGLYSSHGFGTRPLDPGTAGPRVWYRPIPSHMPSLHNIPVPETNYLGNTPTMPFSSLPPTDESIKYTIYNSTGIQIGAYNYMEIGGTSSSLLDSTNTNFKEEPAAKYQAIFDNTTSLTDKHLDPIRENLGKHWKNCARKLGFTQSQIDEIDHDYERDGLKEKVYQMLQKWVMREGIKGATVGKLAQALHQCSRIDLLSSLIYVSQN
# TEST: RIPK1 kinase assay, ADP-Glo assay
# Format: biochemical
# RUN_PARAMETERS: ADP-Glo assay
QUANTITY_MEASURED: IC50 (nM)

CC(C)C(=O)Nc1nc2cc(-c3ccc4c(c3)c(C(=O)NC(C)c3ccccc3)cn4C)ccn2n1 (stereo not shown)	5.9

====

# TEST: Pharmacokinetics in Sprague-Dawley rats
# Assay type: in vivo
# RUN_PARAMETERS: male, Sprague-Dawley, rat, plasma, ip, 20 mg/kg
QUANTITY_MEASURED: AUC(0-inf) (ng·h/mL)

CC(C)C(=O)Nc1nc2cc(-c3ccc4c(c3)c(C(=O)NC(C)c3ccccc3)cn4C)ccn2n1 (stereo not shown) [RI-962]	6610

====

# TESTED_SYSTEM: RIPK4 (Homo sapiens, UniProt P57078)
# Sequence (P57078 1-832): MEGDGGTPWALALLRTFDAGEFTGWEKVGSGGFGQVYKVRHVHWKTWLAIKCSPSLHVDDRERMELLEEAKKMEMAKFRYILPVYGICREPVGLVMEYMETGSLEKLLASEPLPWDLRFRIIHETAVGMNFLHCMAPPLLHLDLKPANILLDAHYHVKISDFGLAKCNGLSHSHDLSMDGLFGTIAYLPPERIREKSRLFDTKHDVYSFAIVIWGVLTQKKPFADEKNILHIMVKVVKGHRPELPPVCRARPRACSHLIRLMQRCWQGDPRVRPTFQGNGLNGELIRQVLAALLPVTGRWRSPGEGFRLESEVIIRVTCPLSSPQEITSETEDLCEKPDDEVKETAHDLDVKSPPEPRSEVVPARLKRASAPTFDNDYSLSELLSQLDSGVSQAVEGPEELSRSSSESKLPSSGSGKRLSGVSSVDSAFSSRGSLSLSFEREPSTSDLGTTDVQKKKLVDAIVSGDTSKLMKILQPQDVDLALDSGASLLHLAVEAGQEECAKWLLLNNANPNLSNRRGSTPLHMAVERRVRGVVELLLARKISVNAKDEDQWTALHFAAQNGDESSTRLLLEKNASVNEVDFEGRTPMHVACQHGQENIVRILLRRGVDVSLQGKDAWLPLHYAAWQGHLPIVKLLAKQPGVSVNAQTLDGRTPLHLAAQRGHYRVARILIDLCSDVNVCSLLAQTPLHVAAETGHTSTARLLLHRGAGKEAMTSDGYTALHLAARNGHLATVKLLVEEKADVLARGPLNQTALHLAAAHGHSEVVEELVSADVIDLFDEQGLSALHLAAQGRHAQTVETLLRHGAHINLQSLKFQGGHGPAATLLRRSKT
pIC50: −log10 of the molar value.
QUANTITY_MEASURED: pIC50

CC(C)C(=O)Nc1nc2cc(-c3ccc4c(c3)c(C(=O)NC(C)c3ccccc3)cn4C)ccn2n1 (stereo not shown)	< 5.00

====

# TEST: Pharmacokinetics in Sprague-Dawley rats
# Type: in vivo
# RUN_PARAMETERS: male, Sprague-Dawley, rat, plasma, ip, 20 mg/kg
QUANTITY_MEASURED: half-life (h)

CC(C)C(=O)Nc1nc2cc(-c3ccc4c(c3)c(C(=O)NC(C)c3ccccc3)cn4C)ccn2n1 (stereo not shown)	8.5
